As shown below, each of these molecules has a reported Cell viability (%) 10 µM value.
# System: LLC-MK2 cells
# Condition: 24 h incubation, peptide 10 µM, resazurin assay
Peptide text beside a SMILES is read from it.
Recorded Metric: Cell viability (%) 10 µM

Molecule	Test System	Recorded Metric	Value Reported
CSCC[C@H](NC(=O)[C@@H](NC(=O)[C@@H](NC(=O)[C@H](CCCCN)NC(=O)[C@@H](N)Cc1ccc(O)cc1)C(C)C)[C@@H](C)O)C(=O)N[C@H](C(=O)N[C@@H](CS)C(=O)N[C@@H](CO)C(=O)N[C@@H](C)C(=O)N[C@@H](CO)C(=O)O)[C@@H](C)O [Peptide Y10S] (H-YKVTMTCSAS-OH)	LLC-MK2 cells	Cell viability (%) 10 µM	96.89
CSCC[C@H](NC(=O)[C@@H](NC(=O)[C@@H](NC(=O)[C@H](CCCCN)NC(=O)[C@@H](N)CO)C(C)C)[C@@H](C)O)C(=O)N[C@H](C(=O)N[C@@H](CS)C(=O)N[C@@H](CO)C(=O)N[C@@H](C)C(=O)N[C@@H](CO)C(=O)O)[C@@H](C)O [Peptide S10S] (H-SKVTMTCSAS-OH)	LLC-MK2 cells	Cell viability (%) 10 µM	99.77
